- assay system: isolated recombinant JAK2 kinase domain (Homo sapiens)
- Construct: isolated recombinant JAK1 and JAK2 kinase domain
- experiment description: JAK enzyme assay, JAK2 kinase domain (Caliper LabChip)
- test context: 0.2 nM JAK2, ATP 25 μM, Morrison tight binding model
readout label: log10 of Ki (log10 of the value in nM)
Use the decimal logarithm of Ki (nM).

Please review the entries below; each comes with its answer.
> print(dat)
                                   compound  numeric.value
1  CCc1cnn(C2(CC#N)CN(c3cccn4nc(Nc5ccc(C(=O)NCCN6CCOCC6)cc5)nc34)C2)c1          -0.30
2  CCc1cnn(C2(CC#N)CN(c3cccn4nc(Nc5ccc(C(=O)N6CCN(C)CC6)c(C)c5)nc34)C2)c1           0.23
3  CCc1cnn(C2(CC#N)CN(c3cccn4nc(Nc5cnn(CC(=O)N6CCC(CN7CCN(C)CC7)CC6)c5)nc34)C2)c1          -0.70

Prompt: Please give the measured log10 of Ki for this compound: N#CCC1(n2cc(C(F)(F)F)cn2)CN(c2cccn3nc(Nc4cnn(CCO)c4)nc23)C1
Response: -0.52

Prompt: Same for CC(C)Sc1ccc(C2(CC#N)CN(c3cccn4nc(Nc5cnn(CC(=O)N6CCN(C)CC6)c5)nc34)C2)cc1
Response: 0.57

* * *

- assay system: isolated recombinant JAK1 kinase domain (Homo sapiens)
- Construct: isolated recombinant JAK1 and JAK2 kinase domain
- experiment description: JAK enzyme assay, JAK1 kinase domain (Caliper LabChip)
- test context: 1.5 nM JAK1, ATP 25 μM, Morrison tight binding model
readout label: log10 of Ki (log10 of the value in pM)
Use the decimal logarithm of Ki (pM).

Please review the entries below; each comes with its answer.
> print(dat)
                                   compound  readout.label  numeric.value
1  N#CCC1(c2cccc(Cl)c2)CN(c2cccn3nc(Nc4cnn(CC(=O)N5CCN(CCN6CCOCC6)CC5)c4)nc23)C1 [Example 82]    log10 of Ki           2.30
2  CCc1cnn(C2(CC#N)CN(c3nccn4nc(Nc5cn[nH]c5)nc34)C2)c1 [Example 153]    log10 of Ki           3.95
3  CCc1ccc(C2(CC#N)CN(c3cccn4nc(Nc5cnn(CC(=O)N6CCN(C)CC6)c5)nc34)C2)cc1 [Example 60]    log10 of Ki           2.60
4  CN1CCN(C(=O)Cn2cc(Nc3nc4c(N5CC(CC#N)(n6cc(NCC(F)(F)F)cn6)C5)cccn4n3)cn2)CC1 [Example 104]    log10 of Ki           2.48
5  CN1CCN(C(=O)Cn2cc(Nc3nc4c(N5CC(CC#N)(c6ccc(Cl)c(F)c6)C5)cccn4n3)cn2)CC1 [Example 23]    log10 of Ki           2.85

Prompt: Please give the measured log10 of Ki for this compound: CC(C)Sc1cnn(C2(CC#N)CN(c3cccn4nc(Nc5cnn(CC(=O)N6CCN(C)CC6)c5)nc34)C2)c1 [Example 105]
Response: 2.85

Prompt: Same for N#CCC1(n2cc(C3CC3)cn2)CN(c2cccn3nc(Nc4cn[nH]c4)nc23)C1 [Example 140]
Response: 2.00

Prompt: Same for Cn1cc(Nc2nc3c(N4CC(CC#N)(n5cc(C6CC6)cn5)C4)cccn3n2)cn1 [Example 142]
Response: 2.60

Prompt: Same for CN(CC(C)(C)C#N)C1CCN(C(=O)Cn2cc(Nc3nc4c(N5CC(CC#N)(n6cc(C(F)(F)F)cn6)C5)cccn4n3)cn2)CC1 [Example 108]
Response: 2.78

Prompt: Same for N#CCC1(c2cccc(Cl)c2)CN(c2cccn3nc(Nc4cnn(CC(=O)N5CCC(NC6COC6)CC5)c4)nc23)C1 [Example 93]
Response: 2.60

Prompt: Same for N#CCC1(n2cc(Br)cn2)CN(c2cccn3nc(Nc4cnn(CC(=O)N5CCN(C6CCOCC6)CC5)c4)nc23)C1 [Example 129]
Response: 2.48

Prompt: Same for CC(C)(C#N)CCN1CCN(C(=O)Cn2cc(Nc3nc4c(N5CC(CC#N)(n6cc(C(F)(F)F)cn6)C5)cccn4n3)cn2)CC1 [Example 107]
Response: 2.60

Prompt: Same for CN1CCN(C(=O)Cn2cc(Nc3nc4c(N5CC(CC#N)(N6CCN(C)CC6)C5)cccn4n3)cn2)CC1 [Example 9]
Response: 2.78

Prompt: Same for CN1CCN(C(=O)Cn2cc(Nc3nc4c(N5CC(CC#N)(Cc6cccc(Cl)c6)C5)cccn4n3)cn2)CC1 [Example 102]
Response: 3.08

* * *

- assay system: isolated recombinant JAK2 kinase domain (Homo sapiens, UniProt O60674)
- Construct: isolated recombinant JAK1 and JAK2 kinase domain
- Sequence (O60674 849-1124 limits assumed): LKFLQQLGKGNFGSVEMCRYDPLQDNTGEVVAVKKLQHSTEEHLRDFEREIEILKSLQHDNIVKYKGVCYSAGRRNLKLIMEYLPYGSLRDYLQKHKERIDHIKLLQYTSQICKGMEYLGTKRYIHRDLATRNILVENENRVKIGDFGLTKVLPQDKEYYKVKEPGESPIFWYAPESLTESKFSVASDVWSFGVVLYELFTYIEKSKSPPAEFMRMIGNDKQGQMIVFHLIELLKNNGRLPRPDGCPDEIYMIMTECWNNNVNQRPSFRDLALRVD
- experiment description: JAK enzyme assay, JAK2 kinase domain (Caliper LabChip)
- test context: 0.2 nM JAK2, ATP 25 μM, Morrison tight binding model
readout label: pKi
Reminder that pKi means the negative base-10 logarithm of the concentration expressed in mol/L.

> print(dat)
                                   molecule                              assay.system  readout.label  numeric.value
1  CCc1cnn(C2(CC#N)CN(c3cccn4nc(Nc5ccc(C(=O)N(C)CC6CCN(C7COC7)CC6)cc5)nc34)C2)c1 [Example 88]  isolated recombinant JAK2 kinase domain (Homo sapiens, UniProt O60674)            pKi           9.00

Prompt: Please give the measured pKi for this molecule: CN1CCN(C(=O)Cn2cc(Nc3nc4c(N5CC(CC#N)(N6CCOCC6)C5)cccn4n3)cn2)CC1 [Example 8]
Response: 8.82

Prompt: Same for Cc1ccccc1-c1cnn(C2(CC#N)CN(c3cccn4nc(Nc5cnn(CC(=O)N6CCN(C7COC7)CC6)c5)nc34)C2)c1 [Example 122]
Response: 8.43

Prompt: Same for CCc1cnn(C2(CC#N)CN(c3cccn4nc(Nc5cnn(CC(=O)N(C)C)c5)nc34)C2)c1 [Example 143]
Response: 8.77

Prompt: Same for CCc1cnn(C2(CC#N)CN(c3cccn4nc(Nc5cnn(CC(=O)N6CCC(N7CCOCC7)CC6)c5)nc34)C2)c1 [Example 29]
Response: 8.68

Prompt: Same for CCc1cnn(C2(C(C)C#N)CN(c3cccn4nc(Nc5cnn(CC(=O)N6CCN(C)CC6)c5)nc34)C2)c1 (stereo not shown) [Example 54]
Response: 8.55

Prompt: Same for CCCc1cnn(C2(CC#N)CN(c3cccn4nc(Nc5cnn(CC(=O)N6CCN(C)CC6)c5)nc34)C2)c1 [Example 22]
Response: 8.52

* * *

- assay system: isolated recombinant JAK1 kinase domain (Homo sapiens, UniProt P23458)
- Construct: isolated recombinant JAK1 and JAK2 kinase domain
- Sequence (P23458 875-1153 limits assumed): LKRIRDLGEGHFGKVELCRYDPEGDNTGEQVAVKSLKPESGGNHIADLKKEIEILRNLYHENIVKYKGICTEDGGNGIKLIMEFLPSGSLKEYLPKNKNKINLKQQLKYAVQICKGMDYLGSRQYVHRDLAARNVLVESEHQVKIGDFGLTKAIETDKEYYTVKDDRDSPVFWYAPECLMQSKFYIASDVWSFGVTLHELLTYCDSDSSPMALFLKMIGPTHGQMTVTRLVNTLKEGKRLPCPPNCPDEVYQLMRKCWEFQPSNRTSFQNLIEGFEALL
- experiment description: JAK enzyme assay, JAK1 kinase domain (Caliper LabChip)
- test context: 1.5 nM JAK1, ATP 25 μM, Morrison tight binding model
readout label: Ki (pM)
The response must be a number in pM with no trailing unit.

Prompt: Please give the measured Ki for this compound: CCc1cnn(C2(CC#N)CN(c3cccn4nc(Nc5ccc(C(=O)N6CC(C(=O)N7CCN(C)CC7)C6)cc5)nc34)C2)c1
Response: 500

Prompt: Same for Cc1nn(C2(CC#N)CN(c3cccn4nc(Nc5cnn(CC(=O)N6CCN(C)CC6)c5)nc34)C2)cc1-c1ccccc1
Response: 300

Prompt: Same for Cc1ccccc1-c1cnn(C2(CC#N)CN(c3cccn4nc(Nc5cnn(CC(=O)N6CCN(C7COC7)CC6)c5)nc34)C2)c1
Response: 500

Prompt: Same for CCc1cnn(C2(CC#N)CN(c3cccn4nc(Nc5ccc(C(=O)N6CCN(C)CC6)c(F)c5)nc34)C2)c1
Response: 400

Prompt: Same for N#CCC1(n2cc(C(F)(F)F)cn2)CN(c2cccn3nc(Nc4cnn(CC(=O)N5CCN(C6CCOCC6)CC5)c4)nc23)C1
Response: 500

* * *

- assay system: isolated recombinant JAK1 kinase domain (Homo sapiens)
- Construct: isolated recombinant JAK1 and JAK2 kinase domain
- experiment description: JAK enzyme assay, JAK1 kinase domain (Caliper LabChip)
- Format: biochemical
- test context: 1.5 nM JAK1, ATP 25 μM, Morrison tight binding model
# maps each entry to its Ki
The response must be a number in nM with no trailing unit.

Please review the entries below; each comes with its answer.
> print(dat)
                                   compound  readout.label  numeric.value
1  CCc1cnn(C2(CC#N)CN(c3cccn4nc(Nc5cnn(CC(=O)N6CCN(C)CC6)c5)nc34)C2)c1 [Example 1]             Ki            0.8
2  CCc1cnn(C2(CC#N)CN(c3cccn4nc(Nc5cnn(CC(=O)N6CCC(CN7CCOCC7)CC6)c5)nc34)C2)c1 [Example 53]             Ki            0.9
3  CN1CCN(C(=O)Cn2cc(Nc3nc4c(N5CC(CC#N)(n6cc(C(F)(F)F)cn6)C5)cccn4n3)cn2)CC1 [Example 15]             Ki            2.2
4  CCc1cnn(C2(CC#N)CN(c3cccn4nc(Nc5cccc(C(=O)N6CCN(C)CC6)c5)nc34)C2)c1 [Example 75]             Ki            0.4
5  CCc1cnn(C2(CC#N)CN(c3cccn4nc(Nc5cnn(CC(=O)N6CCC(N(C)CC(C)(C)C#N)CC6)c5)nc34)C2)c1 [Example 52]             Ki            0.2

Prompt: # returns recorded Ki (system: isolated recombinant JAK1 kinase domain (Homo sapiens)) for N#CCC1(n2cc(Br)cn2)CN(c2cccn3nc(Nc4cnn(CC(=O)N5CCC(N6CCOCC6)CC5)c4)nc23)C1 [Example 130]
Response: 0.4

Prompt: Same for Cc1ccccc1-c1cnn(C2(CC#N)CN(c3cccn4nc(Nc5cnn(CC(=O)N6CCC(N7CCOCC7)CC6)c5)nc34)C2)c1 [Example 123]
Response: 0.3

Prompt: Same for CCc1cnn(C2(CC#N)CN(c3cccn4nc(Nc5cnn(CC(=O)N6CCN(CCOC)CC6)c5)nc34)C2)c1 [Example 46]
Response: 0.2

Prompt: Same for CN1CCN(C(=O)Cn2cc(Nc3nc4c(N5CC(CC#N)(n6cc(CCc7ccccc7)cn6)C5)cccn4n3)cn2)CC1 [Example 59]
Response: 0.2

Prompt: Same for COc1cnn(C2(CC#N)CN(c3cccn4nc(Nc5cn[nH]c5)nc34)C2)c1 [Example 139]
Response: 0.4

Prompt: Same for N#CCC1(n2cc(C(F)(F)F)cn2)CN(c2cccn3nc(Nc4cccc(C(=O)N5CCC(N6CCOCC6)CC5)c4)nc23)C1 [Example 112]
Response: 1

Prompt: Same for CCc1cnn(C2(CC#N)CN(c3cccn4nc(Nc5ccc(C(=O)N6CCN(C7CCOCC7)CC6)cc5)nc34)C2)c1 [Example 37]
Response: 0.5

Prompt: Same for CN1CCN(C(=O)Cn2cc(Nc3nc4c(N5CC(CC#N)(n6cccn6)C5)cccn4n3)cn2)CC1 [Example 18]
Response: 0.7

Prompt: Same for N#CCC1(n2cc(C(F)(F)F)cn2)CN(c2cccn3nc(Nc4ccc(CC(=O)N5CCN(C6COC6)CC5)cc4)nc23)C1 [Example 115]
Response: 2.4
